These data points were gathered from patent US9175003B2.

- Target under test: human GLP-1 receptor (Homo sapiens (Human), UniProt P43220)
- Sequence (P43220 24-463): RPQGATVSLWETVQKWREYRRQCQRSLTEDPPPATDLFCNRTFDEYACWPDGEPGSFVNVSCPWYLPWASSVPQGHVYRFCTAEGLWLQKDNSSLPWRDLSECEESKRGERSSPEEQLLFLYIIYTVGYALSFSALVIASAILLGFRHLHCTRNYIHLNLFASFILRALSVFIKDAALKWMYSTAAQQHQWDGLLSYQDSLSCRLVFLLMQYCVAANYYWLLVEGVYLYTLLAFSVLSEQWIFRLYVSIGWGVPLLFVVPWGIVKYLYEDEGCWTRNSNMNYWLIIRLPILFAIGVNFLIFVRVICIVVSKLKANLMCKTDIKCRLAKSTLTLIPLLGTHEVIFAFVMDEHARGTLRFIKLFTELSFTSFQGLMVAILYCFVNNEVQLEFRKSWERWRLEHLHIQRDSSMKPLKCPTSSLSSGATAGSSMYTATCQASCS
- Details: read-out: Mean EC50; cAMP, HTRF detection, 30 min at 37° C., HEK-293 cells expressing cloned human GLP-1 receptor
Reported property: EC50 (nM)

Some solved entries appear below for comparison.
# Sample smiles, EC50 [nM]
rows = [
    ("Cc1nccc(-c2ccc(C[C@H](NC(=O)[C@@H]3Cc4cc5c(cc4CN3C(=O)N[C@H](C)c3ccccc3)O[C@@H](c3ccc(OCc4cccc(Cl)c4Cl)cc3)CO5)C(=O)O)cc2)c1C", 112),
    ("Cc1ccc(C(=O)N2Cc3cc4c(cc3C[C@H]2C(=O)N[C@@H](Cc2ccc(-c3ccnc(C)c3C)cc2)C(=O)O)OC[C@H](c2ccc(OCc3ccc(Cl)c(Cl)c3)cc2)O4)cc1", 146),
    ("Cc1nc(C(=O)N2Cc3cc4c(cc3C[C@H]2C(=O)N[C@@H](Cc2ccc(-c3ccnc(C)c3C)cc2)C(=O)O)OC[C@H](c2ccc(OCc3cccc(Cl)c3F)cc2)O4)c(C)o1", 117),
    ("CC[C@@H](c1ccccc1)N1Cc2cc3c(cc2C[C@H]1C(=O)N[C@@H](Cc1ccc(Oc2cccnc2)cc1)C(=O)O)OC[C@H](c1ccc(OCc2ccc(Cl)c(Cl)c2)cc1)O3", 119),
    ("Cc1nc(C(=O)N2Cc3cc4c(cc3C[C@H]2C(=O)N[C@@H](Cc2ccc(-c3ccnc(C)c3C)cc2)C(=O)O)OC[C@H](c2ccc(OCCC(C)(C)C)cc2)O4)c(C)o1", 213),
]

P. Cc1nccc(-c2ccc(C[C@H](NC(=O)[C@@H]3Cc4cc5c(cc4CN3C(=O)OC(C)C)O[C@@H](c3ccc(OCc4ccc(Cl)c(Cl)c4)cc3)CO5)C(=O)O)cc2)c1C
Q. Cc1nccc(-c2ccc(C[C@H](NC(=O)[C@@H]3Cc4cc5c(cc4CN3C(=O)[C@@H]3CCN(C(=O)OC(C)(C)C)C3)O[C@@H](c3ccc(OCc4ccc(Cl)c(Cl)c4)cc3)CO5)C(=O)O)cc2)c1C
R. Cc1nccc(-c2ccc(C[C@H](NC(=O)[C@@H]3Cc4cc5c(cc4CN3C(=O)OC(C)(C)C)O[C@H](c3ccc(OCc4ccc(Cl)c(Cl)c4)cc3)CO5)C(=O)O)cc2)c1C
S. Cc1nc(C(=O)N2Cc3cc4c(cc3C[C@H]2C(=O)N[C@@H](Cc2ccc(-c3ccnc(C)c3C)cc2)C(=O)O)OC[C@H](c2ccc(OCc3cc(F)ccc3F)cc2)O4)c(C)o1
Ask | List from greatest to least EC50. Please respond with the labels ordered as the question requires.
Reply | P, R, S, Q
(P: 261 nM, R: 84 nM, S: 57 nM, Q: 5 nM)

----------
- Target under test: human GLP-1 receptor (Homo sapiens (Human), UniProt P43220)
- Details: read-out: Mean EC50; cAMP, HTRF detection, 30 min at 37° C., HEK-293 cells expressing cloned human GLP-1 receptor
pEC50: −log10 of the molar value.
Reported property: pEC50

# Sample smiles, Target under test, Data value
measured = [
    ("Cc1nccc(-c2ccc(C[C@H](NC(=O)[C@@H]3Cc4cc5c(cc4CN3C(=O)N[C@H](C)c3ccccc3)O[C@@H](c3ccc(OCc4cc(F)cc(F)c4)cc3)CO5)C(=O)O)cc2)c1C", "human GLP-1 receptor (Homo sapiens (Human), UniProt P43220)", 7.02),
    ("CC[C@@H](c1ccccc1)N1Cc2cc3c(cc2C[C@H]1C(=O)N[C@@H](Cc1ccc(-c2ccnc(C)c2C)cc1)C(=O)O)OC[C@H](c1ccc(OCC2CCCCC2)cc1)O3", "human GLP-1 receptor (Homo sapiens (Human), UniProt P43220)", 6.95),
    ("Cc1nccc(-c2ccc(C[C@H](NC(=O)[C@@H]3Cc4cc5c(cc4CN3C(=O)N3CCOCC3)O[C@@H](c3ccc(OCc4ccc(Cl)c(Cl)c4)cc3)CO5)C(=O)O)cc2)c1C", "human GLP-1 receptor (Homo sapiens (Human), UniProt P43220)", 7.13),
]
